I'd be grateful if you could share measured pIC50 for these entries.
Target: T1, chromodomain of CDYL2 (human, UniProt Q8N8U2 1-75)
T1 sequence (looked up): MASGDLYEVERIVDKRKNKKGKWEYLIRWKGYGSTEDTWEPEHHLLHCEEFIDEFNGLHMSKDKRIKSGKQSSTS
Experiment: AlphaScreen or HTRF
* marks the point of attachment. diethyl = not defined here; Bz = O=C(c1ccccc1)*
The quantity pIC50 is defined as the negative base-10 logarithm of the molar concentration.

INPUT: # lookup: pIC50 of {4‑CO2Me‑Bz}-FALK(diethyl)S-OMe (reading uncertain) [compound 33]
OUTPUT: 6.96

INPUT: # lookup: pIC50 of {4‑CF3‑Bz}-FALK(diethyl)S-OMe (reading uncertain) [compound 34]
OUTPUT: 6.89

INPUT: # lookup: pIC50 of {4‑Me‑Bz}-FALK(diethyl)S-OMe (reading uncertain) [compound 30]
OUTPUT: 6.55

INPUT: # lookup: pIC50 of Bz-FALK(diethyl)S-OMe (reading uncertain) [compound 27]
OUTPUT: 6.47

INPUT: # lookup: pIC50 of {t‑butylbenzyl}-FALK(diethyl)S-OMe (reading uncertain) [compound 36]
OUTPUT: 6.70

INPUT: # lookup: pIC50 of {2‑Me‑Bz}-FALK(diethyl)S-OMe (reading uncertain) [compound 28]
OUTPUT: 6.25

This collection of values is drawn from paper PMC5063714.
